- Test system: ileocecal adenocarcinoma HCT-8
- protocolDetails: Cytotoxicity assay, ileocecal adenocarcinoma HCT-8
- Type: cell-based
- runConditions: Homo sapiens, 48 h, summary table, read-out: Test Cells at (ID 50), HCT-8

# compound, assayTarget, IC50 [mg/L]
data = [
    ("CC1(C)C=CC(=O)C(C(Cl)CBr)=C1 (stereo not drawn)", "ileocecal adenocarcinoma HCT-8", 5),
    ("CC(=O)OCC(Cl)C1=CC(C)(C)C=CC1=O (stereo not drawn)", "ileocecal adenocarcinoma HCT-8", 10),
    ("COC(C)(OC)C1=CC(C)(C)C=CC1=O", "ileocecal adenocarcinoma HCT-8", 30),
    ("CC(=O)C1=CC(C)(C)C=CC1=O", "ileocecal adenocarcinoma HCT-8", 5),
    ("C=C(OC)C1=CC(C)(C)C=CC1=O", "ileocecal adenocarcinoma HCT-8", 20),
    ("CC1(C)C=CC(=O)C(C2CO2)=C1 (stereo not drawn)", "ileocecal adenocarcinoma HCT-8", 5),
]

====

- System: L-1210 murine leukemia cells
- protocolDetails: Cytotoxicity assay, L1210 mouse leukemia cells
- Format: cell-based
- runConditions: in vitro, at 200 micrograms per milliliter, read-out: survival, L-1210
Examples of compounds with documented viability at 200 µg/mL follow.

# compound, unitAnnotation, viability at 200 µg/mL
data = [
    ("C=C(OC)C1=CC(C)(C)C=CC1=O", "%", 15),
    ("COC(C)(OC)C1=CC(C)(C)C=CC1=O", "%", 17),
    ("CC1(C)C=CC(=O)C(C2CO2)=C1 (stereo not shown)", "%", 25),
    ("CC(=O)C1=CC(C)(C)C=CC1=O", "%", 41),
]
